List of pKd values.
biological target: UniProt P08238; assay: ITC
Note on units: pKd is unitless, being -log10 of a concentration expressed in mol/L.

Here are 4 molecules together with their reported answers.
CCc1cc(-n2c(=O)[nH]c3ccccc32)c(O)cc1O ... 7.16
COc1cccc(OC)c1-c1cc(C)nc(N)n1 ... 5.83
O=C(c1cccc(O)c1)c1ccc(O)cc1O [Polyhydroxy benzophenone, 12] ... 4.94
CC(C)c1ccc(S(=O)(=O)NCc2ccc3c(c2)[nH]c(=O)n3-c2cc(Cl)c(O)cc2O)cc1 ... 6.94

Quote pKd reported for COc1cc(-c2cc(-n3c(=O)[nH]c4ccccc43)c(O)cc2O)cc(OC)c1OC please.
4.99

Quote pKd reported for O=c1[nH]c2cc(CNS(=O)(=O)c3ccccc3O)ccc2n1-c1cc(Cl)c(O)cc1O please.
7.97

----------
List of Kd values.
molecular target: UniProt P08238; assay: Thermofluor Assay
Reply numerically in µM, unit not repeated.

Here are 10 compounds together with their reported answers.
Cc1cc(-n2nc(C(=O)NCC3COC(C)(C)O3)cc2C)nc(N)n1 (stereo not drawn) ... 91
O=c1[nH]c2ccccc2n1-c1cc(-c2ccccc2O)c(O)cc1O ... 4.58
CCCc1cc(-n2c(=O)[nH]c3ccccc32)c(O)cc1O ... 0.123
COc1cccc(OC)c1-c1cc(C)nc(N)n1 ... 2.28
CCOC(=O)CO/N=C/c1c(Cl)nc(N)nc1-c1ccc(Cl)cc1Cl ... 11.2
O=c1[nH]c2ccccc2n1-c1cc(-c2cccnc2O)c(O)cc1O ... 94.8
COc1ccc(-c2cc(-c3ccc(Cl)cc3Cl)nc(N)n2)c(OC)c1 ... 265
O=C(c1ccc(O)cc1)c1cc(Cl)ccc1O ... 7.51
O=c1[nH]c2cc(CNS(=O)(=O)c3ccccc3O)ccc2n1-c1cc(Cl)c(O)cc1O ... 0.172
Cc1cc(-c2ccc([N+](=O)[O-])cc2Cl)nc(N)n1 ... 4.53

Quote Kd reported for O=C(c1cccc(O)c1)c1ccc(O)cc1O [Polyhydroxy benzophenone, 12] please.
28.9

Quote Kd reported for Nc1nc(N)nc(-c2ccccc2Cl)n1 please.
20.4

Quote Kd reported for CCc1cc(-n2c(=O)[nH]c3ccccc32)c(O)cc1O please.
0.165

Quote Kd reported for COc1cc(-c2cc(-n3c(=O)[nH]c4ccccc43)c(O)cc2O)cc(OC)c1OC please.
0.993

Quote Kd reported for Nc1nc(Cl)c(/C=N/O)c(-c2ccc(Cl)cc2Cl)n1 please.
2.25

----------
molecular target: Heat shock protein HSP 90-beta (Homo sapiens, UniProt P08238); test: Thermofluor Assay
Sequence (P08238 whole entry): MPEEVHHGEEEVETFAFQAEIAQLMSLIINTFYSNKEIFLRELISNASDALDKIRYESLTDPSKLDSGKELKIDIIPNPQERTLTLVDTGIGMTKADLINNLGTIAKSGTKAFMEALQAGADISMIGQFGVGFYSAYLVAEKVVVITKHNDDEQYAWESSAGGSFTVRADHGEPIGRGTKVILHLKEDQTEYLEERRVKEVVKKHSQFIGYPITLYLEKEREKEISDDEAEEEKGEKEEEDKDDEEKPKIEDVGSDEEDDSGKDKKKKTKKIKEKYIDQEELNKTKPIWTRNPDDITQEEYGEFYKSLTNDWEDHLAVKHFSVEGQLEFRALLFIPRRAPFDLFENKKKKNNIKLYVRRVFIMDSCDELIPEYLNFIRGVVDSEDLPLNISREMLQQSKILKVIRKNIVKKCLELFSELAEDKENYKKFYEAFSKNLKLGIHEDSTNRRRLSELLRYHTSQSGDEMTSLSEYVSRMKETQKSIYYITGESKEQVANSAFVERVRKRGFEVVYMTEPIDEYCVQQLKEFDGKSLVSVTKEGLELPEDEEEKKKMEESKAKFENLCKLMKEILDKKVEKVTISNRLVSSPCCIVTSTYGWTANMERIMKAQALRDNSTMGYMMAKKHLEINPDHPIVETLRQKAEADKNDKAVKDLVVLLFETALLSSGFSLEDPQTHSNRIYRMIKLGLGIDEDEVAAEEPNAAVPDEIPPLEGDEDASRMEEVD
List of pKd values.
Note on units: pKd is unitless, being -log10 of a concentration expressed in mol/L.

Here are 2 compounds together with their reported answers.
O=c1[nH]c2cc(CNS(=O)(=O)c3cccnc3)ccc2n1-c1cc(Cl)c(O)cc1O ... 6.42
CC(C)c1ccc(S(=O)(=O)NCc2ccc3c(c2)[nH]c(=O)n3-c2cc(Cl)c(O)cc2O)cc1 ... 6.65

Moving on to the next compound.
Quote pKd reported for O=C(c1ccc(O)cc1)c1ccc(O)cc1O please.
4.97

----------
molecular target: UniProt P08238; experiment: ITC
Source text: ITC
Note that class boundaries on Kd are low-valued (below 3 µM), mid-valued (3 µM to below 7 µM), high-valued (7 µM or more)

Recorded results for 5 molecules are shown here.
Cc1cc(-c2ccc([N+](=O)[O-])cc2Cl)nc(N)n1 ... low-valued
O=C(c1ccc(O)cc1)c1ccc(O)cc1O ... mid-valued
O=c1[nH]c2ccccc2n1-c1cc(-c2ccccc2O)c(O)cc1O ... mid-valued
O=C(c1ccc(O)cc1)c1cc(Cl)ccc1O ... high-valued
CCCc1cc(-n2c(=O)[nH]c3ccccc32)c(O)cc1O ... low-valued

# bin label for Cc1cc(-n2nc(C(=O)NCC3COC(C)(C)O3)cc2C)nc(N)n1 (stereo not given)
high-valued

----------
List of Kd values.
target: Heat shock protein HSP 90-beta (Homo sapiens, UniProt P08238); assay: ITC
Reply numerically in µM, unit not repeated.

O=c1[nH]c2ccccc2n1-c1cc(-c2ccnc3ccccc23)c(O)cc1O ... 3.06
O=c1[nH]c2cc(CNS(=O)(=O)c3cccnc3)ccc2n1-c1cc(Cl)c(O)cc1O ... 0.0268
Nc1nc(N)nc(-c2ccccc2Cl)n1 ... 7.45

Quote Kd reported for O=c1[nH]c2ccccc2n1-c1cc(-c2cccnc2O)c(O)cc1O please.
54
